Numbers sourced from patent US20190127480A1.

- assay.target: human CD3 expressed on cells (Jurkat cells; human T-cells of PBMC) (human, UniProt P09693 23-182; P20963 22-164)
- Sequence (chain, as listed by the source, chain 1 of 4): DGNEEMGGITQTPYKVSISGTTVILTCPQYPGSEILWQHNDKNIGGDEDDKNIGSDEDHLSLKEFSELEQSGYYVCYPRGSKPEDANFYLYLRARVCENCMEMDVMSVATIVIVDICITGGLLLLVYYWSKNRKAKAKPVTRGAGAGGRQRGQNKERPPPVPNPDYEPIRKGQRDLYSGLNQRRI
- Sequence (chain, as listed by the source, chain 2 of 4): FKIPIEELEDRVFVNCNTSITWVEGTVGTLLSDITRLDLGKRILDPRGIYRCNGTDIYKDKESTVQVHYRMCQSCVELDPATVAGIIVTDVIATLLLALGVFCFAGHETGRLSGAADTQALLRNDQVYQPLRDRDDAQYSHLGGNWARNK
- Sequence (P09693 23-182, chain 3 of 4): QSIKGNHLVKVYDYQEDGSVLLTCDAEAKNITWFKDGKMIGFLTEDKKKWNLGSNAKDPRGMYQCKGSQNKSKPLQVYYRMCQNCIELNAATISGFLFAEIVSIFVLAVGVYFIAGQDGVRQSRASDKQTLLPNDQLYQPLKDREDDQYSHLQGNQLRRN
- Sequence (P20963 22-164, chain 4 of 4): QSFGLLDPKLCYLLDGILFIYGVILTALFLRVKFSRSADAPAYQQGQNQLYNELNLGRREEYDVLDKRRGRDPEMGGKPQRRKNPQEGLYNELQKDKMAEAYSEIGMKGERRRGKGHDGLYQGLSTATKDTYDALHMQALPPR
- protocol.notes: cell-based or functional assay
Task for the reader: assign each of the following binders its reported U937 Cytotoxicity Human T-cells.

Kindly note the recorded U937 Cytotoxicity Human T-cells for H2M2885N (antibody, mouse IgG2, V domains shown) VH: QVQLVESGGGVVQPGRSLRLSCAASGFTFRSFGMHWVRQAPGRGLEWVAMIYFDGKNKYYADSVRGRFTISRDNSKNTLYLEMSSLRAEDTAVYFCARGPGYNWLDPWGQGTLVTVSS VL: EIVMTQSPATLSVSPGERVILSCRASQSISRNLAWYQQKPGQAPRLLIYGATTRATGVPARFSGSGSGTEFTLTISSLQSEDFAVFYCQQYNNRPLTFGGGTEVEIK , which is 3.71 pM

Just so you know, measured U937 Cytotoxicity Human T-cells for H2M2775N (antibody, mouse IgG2, V domains shown) VH: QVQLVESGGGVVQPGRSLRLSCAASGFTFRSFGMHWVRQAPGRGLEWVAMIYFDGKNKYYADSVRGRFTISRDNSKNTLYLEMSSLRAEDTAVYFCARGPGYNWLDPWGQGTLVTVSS VL: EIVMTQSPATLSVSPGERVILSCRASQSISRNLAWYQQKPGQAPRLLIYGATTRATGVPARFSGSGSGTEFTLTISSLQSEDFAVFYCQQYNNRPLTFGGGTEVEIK came out at 3.38 pM

The binder listed as H2M2690N (antibody, mouse IgG2, V domains shown) VH: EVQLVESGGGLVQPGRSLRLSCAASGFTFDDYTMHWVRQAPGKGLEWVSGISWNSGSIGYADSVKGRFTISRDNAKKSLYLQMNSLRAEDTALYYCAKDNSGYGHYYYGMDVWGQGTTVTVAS VL: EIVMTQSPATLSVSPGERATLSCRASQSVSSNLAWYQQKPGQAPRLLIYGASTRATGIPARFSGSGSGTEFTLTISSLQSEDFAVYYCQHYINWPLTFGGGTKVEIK shows U937 Cytotoxicity Human T-cells equal to 27.9 pM
